pIC50 values, listed per item
Test system: Endogenous Huntingtin Protein
Test: Endogenous Huntingtin Protein Assay (ELISA-based MSD electrochemiluminescence)
Type: cell-based
Settings: Table 1
pIC50: −log10 of the molar value.
experimental.endpoint: pIC50

molecule="Cc1cc(-c2ccc3nc(N(C)C4CCN(C)C(C)C4)sc3c2)cc2cn(C)nc12 (centres unmarked) [Compound 108]" test_result="6.00 to 6.30"
molecule="Cc1cn2cc(-c3ncc4nc(N(C)C5CC(C)(C)NC(C)(C)C5)sc4n3)cc(C)c2n1 [Compound 183]" test_result="≥ 7.00"
molecule="Cc1cn2cc(-c3cc4sc(N(C)C5CCNCC5)nc4cn3)cc(F)c2n1 [Compound 215]" test_result="≥ 7.00"
molecule="CN(c1nc2cnc(-c3cc(C#N)c4nn(C)cc4c3)cc2s1)[C@@H]1C[C@H]2CC[C@@H](C1)N2C [Compound 238]" test_result="≥ 7.00"
molecule="C[C@@H]1C[C@@H](N(C)c2nc3nnc(-c4ccc(-c5cn[nH]c5)cc4O)cc3s2)CCN1 [Compound 396]" test_result="≥ 7.00"
molecule="CN(c1nc2ccc(-c3cc(C#N)c4nn(C)cc4c3)nc2s1)C1CC2CCC(C1)N2 (centres unmarked) [Compound 278]" test_result="≥ 7.00"
molecule="CN[C@H]1CC[C@@H](N(C)c2nc3nnc(-c4ccc(-c5cn[nH]c5)cc4O)cc3s2)CC1 [Compound 345]" test_result="6.30 to 7.00"
molecule="Cn1cc2cc(-c3ccc4nc(C5CCNCC5)sc4c3)cc(C#N)c2n1 [Compound 84]" test_result="≥ 7.00"
molecule="Cc1cn2nc(-c3cc4sc(N(C)C5CC(C)(C)NC(C)(C)C5)nc4cn3)ccc2n1 [Compound 89]" test_result="6.00 to 6.30"
molecule="Cc1cn2cc(-c3ccc4nc(N(C)C5CC(C)(C)NC(C)(C)C5)sc4n3)cc(C#N)c2n1 [Compound 178]" test_result="≥ 7.00"
molecule="Cn1cc2cc(-c3cc(F)c4nc(C5CCNCC5)sc4c3)ccc2n1 [Compound 73]" test_result="≥ 7.00"
molecule="CN1CCC(N(C)c2nc3nnc(-c4ccc(-c5cn[nH]c5)cc4O)cc3s2)C1 (centres unmarked) [Compound 375]" test_result="≥ 7.00"
molecule="COc1cc(-c2cc(F)c3nc(C4CCNCC4)sc3c2)nn2cc(C)nc12 [Compound 151]" test_result="≥ 7.00"
molecule="Cc1cc(-c2ncc3nc(C4CCNCC4)sc3n2)cc2cn(C)nc12 [Compound 110]" test_result="6.30 to 7.00"
molecule="CN[C@H]1C[C@@H](N(C)c2nc3nnc(-c4ccc(-c5cn[nH]c5)cc4O)cc3s2)C1 [Compound 361]" test_result="6.30 to 7.00"
molecule="Cn1cc2cc(-c3ccc4nc(C5=CCNCC5)sc4c3)ccc2n1 [Compound 1]" test_result="6.30 to 7.00"
molecule="Cc1cn2cc(-c3ccc4nc(N(C)C5CC6CCCC(C5)N6)sc4n3)cc(C#N)c2n1 (centres unmarked) [Compound 279]" test_result="≥ 7.00"

###

pIC50 values, listed per item
Test system: Endogenous Huntingtin Protein
Assay: Endogenous Huntingtin Protein Assay (ELISA-based MSD electrochemiluminescence)
Format: cell-based
Conditions: Table 1
pIC50: −log10 of the molar value.
experimental.endpoint: pIC50

compound="Cc1cn2cc(-c3cc4sc(N(C)C5CC6CCC(C5)N6)nc4cn3)cc(F)c2n1 (stereo not drawn)" test_result="≥ 7.00"
compound="Cc1cn2nc(-c3cc(F)c4nc(N(C)C5CC6CCC(C5)N6)sc4c3)cc(C)c2n1 (stereo not drawn)" test_result="≥ 7.00"
compound=CN[C@H]1C[C@H](N(C)c2nc3nnc(-c4ccc(-c5cn[nH]c5)cc4O)cc3s2)C1 test_result="6.30 to 7.00"
compound=CN(c1nc2ccc(-c3cc(C(F)(F)F)c4nn(C)cc4c3)cc2s1)C1CC(C)(C)NC(C)(C)C1 test_result="6.30 to 7.00"
compound="CN1CCCC2(CCN2c2nc3nnc(-c4ccc(-c5cn[nH]c5)cc4O)cc3s2)C1 (stereo not drawn)" test_result="≥ 7.00"
compound=Cc1cn2nc(-c3cnc4nc(C5CCNCC5)sc4c3)cc(C)c2n1 test_result="≥ 7.00"
compound=Cc1cn2cc(-c3cc4sc(N(C)C5CC(C)(C)NC(C)(C)C5)nc4cn3)cc(F)c2n1 test_result="≥ 7.00"
compound=Cc1cn2cc(-c3cc4sc(NC5CC(C)(C)NC(C)(C)C5)nc4cn3)cc(F)c2n1 test_result="≥ 7.00"
compound=Cc1cn2cc(-c3cc4sc(N(C)[C@@H]5C[C@H]6CC[C@@H](C5)N6C)nc4cn3)cc(F)c2n1 test_result="6.30 to 7.00"
